Tested on: HCT116;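 note: Luminescence-based viability readout, five doses per compound, normalized against on-plate DMSO and empty-well controls, followed by dose-response curve fitting for every drug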
Experiment: efficacy (fitted maximal change in viability relative to DMSO control); higher = less cytotoxic (negative = loss of viability)
Conditions: 48 h

compound | efficacy (%)
O=C(O)c1ccc2cc(-c3ccc(O)c(C45CC6CC(CC(C6)C4)C5)c3)ccc2c1 | -88.2
Cc1c(C(=O)Nc2ccc(N3C[C@@H](C)O[C@@H](C)C3)nc2)cccc1-c1ccc(OC(F)(F)F)cc1 | -74.9
C/C=C/C/C=C/CCC(=O)[C@H]1O[C@H]1C(N)=O | -80.2
CC1=C(C)C\2=C(S1)[N]3C(=NN=C3C(CC(=O)NC4=CC=C(O)C=C4)\N=C2C5=CC=C(Cl)C=C5)C (stereo not given) | -80.8
COC(=O)[C@]12CCC(C)(C)C[C@H]1[C@H]3C(=O)\C=C\4[C@@](C)(CC[C@H]5C(C)(C)C(=O)\C(=C/[C@]45C)C#N)[C@]3(C)CC2 | -91.9
CC(C)(C)c1cc(NC(=O)Nc2ccc(-c3cn4c(n3)sc3cc(OCCN5CCOCC5)ccc34)cc2)no1 | -74.1
O=C(/C=C\n1cnc(-c2cc(C(F)(F)F)cc(C(F)(F)F)c2)n1)NNc1ccccn1 [Verdinexor] | -83.9
COc1ccc(C(=O)c2c(C)n(CCN3CCOCC3)c3ccccc23)cc1 | -67.1
CCOC(=O)c1ccnc(CNCC(=O)N(CC)CCN(C)C)c1 | 11.1
COc1ccc(OC)c(-c2nnc3ccc(-c4ccc(OC)c(O[C@@H]5CCOC5)c4)nn23)c1 | -66.5
C[C@@H]1CC2=C(C=C3OCOC3=C2)C(=N\N1C(C)=O)/C4=CC=C(N)C=C4 | -12.4
CCCn1c(=O)c2[nH]c(-c3cnn(Cc4cccc(C(F)(F)F)c4)c3)nc2n(CC)c1=O | -14.4
COc1cc(C)c(/C=C/C(C)=C/C=C/C(C)=C/C(=O)O)c(C)c1C | -17.3
Cc1c(C)n(Cc2ccc(-c3ccccc3C(=O)O)cc2)c2ccc(C(=O)N[C@@H](C)c3ccc([N+](=O)[O-])cc3)cc12 | 14.2
COC(=O)c1ccc2c(c1)NC(=O)/C2=C(\Nc1ccc(N(C)C(=O)CN2CCN(C)CC2)cc1)c1ccccc1 | -92.2

Where these numbers come from: the supplement of paper PMC10290057
